Target: human Claudin-6 (CLDN6) (human) (UniProt P56747)
Experiment: FACS, limiting dilution, ARK2 cells
Observation Type: FACS signal at 200 nM
# answer = number (no unit)

AB1-11 (antibody, V domains shown, humanized; also called humanized AB1-11; HU-11) VH: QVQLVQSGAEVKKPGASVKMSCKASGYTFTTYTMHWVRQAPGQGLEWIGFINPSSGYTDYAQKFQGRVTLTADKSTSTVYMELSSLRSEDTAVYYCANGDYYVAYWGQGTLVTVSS VL: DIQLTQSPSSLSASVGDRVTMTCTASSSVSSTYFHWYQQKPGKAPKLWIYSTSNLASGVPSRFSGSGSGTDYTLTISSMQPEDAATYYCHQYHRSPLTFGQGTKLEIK	16400

Lab note: next binder to report on.
Inquiry: Recall and state the measured FACS signal at 200 nM for AB S7 (antibody, V domains shown) VH: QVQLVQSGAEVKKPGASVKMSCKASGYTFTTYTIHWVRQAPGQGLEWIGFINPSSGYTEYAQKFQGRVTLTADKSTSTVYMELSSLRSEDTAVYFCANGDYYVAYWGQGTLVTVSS VL: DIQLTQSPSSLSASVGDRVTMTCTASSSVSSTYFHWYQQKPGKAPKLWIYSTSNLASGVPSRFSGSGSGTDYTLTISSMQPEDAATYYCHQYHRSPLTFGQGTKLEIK .
Reply text: 47000

meta.source: patent US20230049752A1
